- Tested on: HL-60, HCT-116, Hep3B, H-460
- PROCEDURE_DETAILS: Cytotoxicity screen (MTT) against human cancer cell lines, results in words
- Type: cell-based
- CONDITION_PARAMETERS: comparison within sub-series or with CHM-2133
EXPERIMENTAL_READOUT: cytotoxicity (in words)

>>> observed_measurement("COc1cc2c(cc1O)N=C(c1ccc(F)cc1)CC2=O")
"weaker"
>>> observed_measurement("COc1ccc2c(c1O)C(=O)CC(c1ccc(F)cc1)=N2")
"weaker"

---

EXPERIMENTAL_READOUT: melting point

// lookup melting point for O=C1CC(c2cccc(OCc3ccccc3)c2)=Nc2ccc(N3CCOCC3)cc21
283 to 285 °C

---

- Tested on: A498
- PROCEDURE_DETAILS: MTT assay, A498 cells
- Assay type: cell-based
- CONDITION_PARAMETERS: Homo sapiens, Table 6
EXPERIMENTAL_READOUT: IC50

// lookup IC50 for COc1cc(O)cc(-c2cc(=O)c3cc4c(cc3[nH]2)OCO4)c1 [Compound 166]
> 50 µM

---

- Tested on: MES-SA/Dx5
- PROCEDURE_DETAILS: MTT assay, MES-SA/Dx5 cells
- Format: cell-based, human
- CONDITION_PARAMETERS: Homo sapiens, MES-SA/Dx5; Table 4, B-3 series; 48 hrs
EXPERIMENTAL_READOUT: pIC50
Lab note — pIC50 values are minus log10 of concentrations in M.

// lookup pIC50 for CN(C)c1ccc2c(c1)C(=O)CC(c1cccc(O)c1)=N2 [Compound 139]
6.07

---

Here, each record is paired with measured melting point data.

Reference set, count: 5
>>> observed_measurement("O=C1CC(c2cccc(OCc3ccccc3)c2)=Nc2ccc(N3CCCC3)cc21")
"320 to 322 °C"
>>> observed_measurement("COc1ccc(C2=Nc3ccc(N4CCOCC4)cc3C(=O)C2)cc1")
"302 to 304 °C"
>>> observed_measurement("O=C1CC(c2cccc(O)c2)=Nc2ccc(N3CCCC3)cc21")
"364 to 367 °C"
>>> observed_measurement("O=C1CC(c2ccc(OCc3ccccc3)cc2)=Nc2ccc(N3CCCC3)cc21")
"330 to 332 °C"
>>> observed_measurement("COc1ccc(OC)c(C2=Nc3ccc(N4CCCC4)cc3C(=O)C2)c1")
"272 to 274 °C"

In the following, a different compound is considered.
// lookup melting point for COc1cc2c(cc1OCc1ccccc1)N=C(c1ccc(F)cc1)CC2=O
248 to 249 °C

---

- Tested on: MES-SA/Dx5
- PROCEDURE_DETAILS: MTT assay, MES-SA/Dx5 cells
- Type: cell-based, human
- CONDITION_PARAMETERS: Homo sapiens, MES-SA/Dx5; Table 2, B-1 series; 48 hrs
API: label(entry) gives label 1 if the entry's IC50 is strictly smaller than 10 µM; on equality or larger values it gives label 0.

Consider the worked cases shown below.
>>> assigned_category("COc1cccc(C2=Nc3ccc(N4CCOCC4)cc3C(=O)C2)c1OC")
"label 0"
>>> assigned_category("COc1ccc(OC)c(C2=Nc3ccc(N4CCOCC4)cc3C(=O)C2)c1")
"label 1"
>>> assigned_category("O=C1CC(c2cccc(O)c2)=Nc2ccc(N3CCOCC3)cc21")
"label 1"
>>> assigned_category("O=C1CC(c2ccccc2O)=Nc2ccc(N3CCOCC3)cc21")
"label 0"

# ---- query molecule ----
Item O=C1CC(c2cccc3c2OCO3)=Nc2ccc(N3CCOCC3)cc21 : IC50 beneath 10 µM, strictly?
label 1

---

Here, each record is paired with measured melting point data.

Reference set, count: 4
>>> observed_measurement("CN(C)c1ccc2c(c1)C(=O)CC(c1ccc(OCc3ccccc3)cc1)=N2")
"283 to 285 °C"
>>> observed_measurement("COc1cc2c(cc1O)N=C(c1ccc(F)cc1)CC2=O")
"352 to 354 °C"
>>> observed_measurement("COc1ccc2c(c1OC)C(=O)CC(c1cccc(F)c1)=N2")
"190 to 192 °C"
>>> observed_measurement("COc1cc(C2=Nc3ccc(N4CCCC4)cc3C(=O)C2)ccc1O")
"310 to 312 °C"

In the following, a different compound is considered.
// lookup melting point for COc1cccc(C2=Nc3ccc(N4CCCC4)cc3C(=O)C2)c1OC
258 to 260 °C

---

Here, each record is paired with measured melting point data.

Reference set, count: 3
>>> observed_measurement("COc1cc2c(cc1OCc1ccccc1)N=C(c1ccccc1F)CC2=O [Compound 22]")
"132 to 134 °C"
>>> observed_measurement("O=C1CC(c2ccc(O)cc2)=Nc2ccc(N3CCCC3)cc21 [Compound 141]")
"304 to 306 °C"
>>> observed_measurement("CN(C)c1ccc2c(c1)C(=O)CC(c1cccc(O)c1)=N2 [Compound 139]")
"342 to 344 °C"

In the following, a different molecule is considered.
// lookup melting point for COc1ccccc1C1=Nc2ccc(N3CCOCC3)cc2C(=O)C1 [Compound 130]
262 to 264 °C

---

Here, each record is paired with measured melting point data.

Reference set, count: 5
>>> observed_measurement("O=C1CC(c2ccc(O)cc2)=Nc2ccc(N3CCOCC3)cc21")
"340 to 342 °C"
>>> observed_measurement("COc1cc2c(cc1O)N=C(c1cccc(F)c1)CC2=O")
"326 to 328 °C"
>>> observed_measurement("O=C1CC(c2ccc(F)cc2)=Nc2ccc3c(c21)OCO3")
"286 to 288 °C"
>>> observed_measurement("O=C1CC(c2cccc(F)c2)=Nc2ccc3c(c21)OCO3")
"286 to 288 °C"
>>> observed_measurement("CN(C)c1ccc2c(c1)C(=O)CC(c1ccccc1O)=N2")
"296 to 298 °C"

In the following, a different compound is considered.
// lookup melting point for O=C1CC(c2cccc(O)c2)=Nc2ccc(N3CCOCC3)cc21
357 to 360 °C

---

Here, each record is paired with measured melting point data.

Reference set, count: 8
>>> observed_measurement("O=C1CC(c2ccc(OCc3ccccc3)cc2)=Nc2ccc(N3CCOCC3)cc21 [Compound 119]")
"320 to 323 °C"
>>> observed_measurement("O=C1CC(c2cccc3c2OCO3)=Nc2ccc(N3CCCC3)cc21 [Compound 125]")
"330 to 332 °C"
>>> observed_measurement("COc1cc(C2=Nc3ccc(N4CCOCC4)cc3C(=O)C2)ccc1O [Compound 143]")
"297 to 299 °C"
>>> observed_measurement("CN(C)c1ccc2c(c1)C(=O)CC(c1ccccc1OCc1ccccc1)=N2 [Compound 115]")
"210 to 212 °C"
>>> observed_measurement("CN(C)c1ccc2c(c1)C(=O)CC(c1cccc(OCc3ccccc3)c1)=N2 [Compound 118]")
"307 to 308 °C"
>>> observed_measurement("COc1cc2c(cc1OCc1ccccc1)N=C(c1cccc(F)c1)CC2=O [Compound 23]")
"154 to 155 °C"
>>> observed_measurement("COc1cc(OCc2ccccc2)cc(C2=Nc3cc4c(cc3C(=O)C2)OCO4)c1 [Compound 165]")
"235 to 238 °C"
>>> observed_measurement("O=C1CC(c2ccccc2O)=Nc2ccc(N3CCCC3)cc21 [Compound 135]")
"304 to 306 °C"

// lookup melting point for O=C1CC(c2ccccc2F)=Nc2ccc3c(c21)OCO3 [Compound 19]
282 to 283 °C

// lookup melting point for CN(C)c1ccc2c(c1)C(=O)CC(c1ccc(O)cc1)=N2 [Compound 142]
321 to 323 °C
